PROPERTY_NAME: melting point

Incoming: What measured melting point goes with `O=C1CCc2ccc(Br)cc2N1` ?
Outgoing: 176 to 178 °C

Incoming: GET /values?readout=melting point&item= `COc1ccccc1-c1nc(C(=O)O)cs1`
Outgoing: 184 to 186 °C

Incoming: Fill blank: measured melting point of the molecule `OCc1cc(Cl)c2c(c1)OCO2` is ____.
Outgoing: 101 to 105 °C

Incoming: So what's the measured melting point for this one? `CCOC(=O)COc1ccccc1C(=O)O`
Outgoing: 100 to 102 °C

Incoming: I'd like to know its melting point. The molecule in question is CC(c1ccccc1)n1c(N)nc2ccccc21 (stereo unspecified)
Outgoing: 124 to 126 °C

For each of the items listed, what is its melting point?
1. O=[N+]([O-])c1cc(O)cc(F)c1
2. NS(=O)(=O)CC1CCOCC1
3. O=Cc1c[nH]c2cc(Cl)ccc12
4. O=C(CN1CCNCC1)Nc1ccc(OC(F)(F)F)cc1

Outgoing:
1: 111 to 113 °C; 2: 85 to 87 °C; 3: 209 to 211 °C; 4: 86 to 88 °C

For every item in the list below, what is its measured melting point?
1. Cc1ccc(C(=O)NCC(=O)O)s1
2. O=Cc1ccc(-c2cccc(Cl)c2Cl)o1
3. Cc1nn(-c2ccc(Cl)cc2)cc1C(=O)O
4. Cc1ccc(-n2cc(C=O)c(C(C)(C)C)n2)cc1
5. Cc1cccc(Cl)c1S(N)(=O)=O

Outgoing:
66 to 68 °C
94 to 98 °C
224 to 226 °C
79 to 81 °C
119 to 121 °C

Go through the items and report each one's melting point.
1. Cc1ccc(S(=O)(=O)NCCN)s1
2. CC(Nc1ccc(Cl)cc1Cl)C(=O)O (stereo unspecified)
3. Cc1cc(C)n2ncc(C(=O)O)c2n1
4. Nc1nc2ccccc2n2nnnc12
5. CCOC(=O)/C(C#N)=C\Nc1ccccc1F
6. CC(C)(C)c1ccc(C2(C(=O)O)CCCC2)cc1
7. Cc1nn(C)c2c1NCC1CCCN21 (stereo unspecified)
8. Nc1nnc(-c2ccc([N+](=O)[O-])o2)o1

Outgoing:
1: 94 to 96 °C; 2: 146 to 148 °C; 3: 176 to 178 °C; 4: 289 to 291 °C; 5: 142 to 144 °C; 6: 189 to 191 °C; 7: 159 to 161 °C; 8: 259 to 261 °C
